Measured Kd values are reported for all entries that follow.
B1: NELF-E aptamer (parent)
chain: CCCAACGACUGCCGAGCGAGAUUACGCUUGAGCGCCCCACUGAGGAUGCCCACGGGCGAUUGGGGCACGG

variants of: B1; test: HiTS-RAP; conditions: with NELF-E (Drosophila)
ENDPOINT: Kd (nM)

INSERT INTO measurements (mutation_annotation, reported_measurement) VALUES
  ('A4G G62A', 20.8),
  ('C17G A39G', 8.44),
  ('A19G U41G', 6.27),
  ('U10G G65U', 6.08),
  ('U10G G16A', 5.62),
  ('C6G C53U', 4.15),
  ('A5U C12G', 6.84),
  ('C6U U61A', 38.1),
  ('G14U C33U', 5.15),
  ('U41G G56U', 5.56),
  ('U29G U61C', 59.2),
  ('G14A A19G', 5.88),
  ('U41G G55C', 6.95),
  ('U22G A31U', 5.65),
  ('A4G C38A', 44.4),
  ('U29G G65U', 6.57),
  ('A5G G48A', 12.6),
  ('A24G U61A', 34.7),
  ('U23G G54A', 14.4),
  ('G11A C17G', 6.96),
  ('C9G U10A', 6.51),
  ('C2G', 5.3),
  ('U23G C36A', 8.43),
  ('A5U A19G', 7.47);
